Target: FSH receptor (Homo sapiens, UniProt P23945)
Sequence (P23945 18-695): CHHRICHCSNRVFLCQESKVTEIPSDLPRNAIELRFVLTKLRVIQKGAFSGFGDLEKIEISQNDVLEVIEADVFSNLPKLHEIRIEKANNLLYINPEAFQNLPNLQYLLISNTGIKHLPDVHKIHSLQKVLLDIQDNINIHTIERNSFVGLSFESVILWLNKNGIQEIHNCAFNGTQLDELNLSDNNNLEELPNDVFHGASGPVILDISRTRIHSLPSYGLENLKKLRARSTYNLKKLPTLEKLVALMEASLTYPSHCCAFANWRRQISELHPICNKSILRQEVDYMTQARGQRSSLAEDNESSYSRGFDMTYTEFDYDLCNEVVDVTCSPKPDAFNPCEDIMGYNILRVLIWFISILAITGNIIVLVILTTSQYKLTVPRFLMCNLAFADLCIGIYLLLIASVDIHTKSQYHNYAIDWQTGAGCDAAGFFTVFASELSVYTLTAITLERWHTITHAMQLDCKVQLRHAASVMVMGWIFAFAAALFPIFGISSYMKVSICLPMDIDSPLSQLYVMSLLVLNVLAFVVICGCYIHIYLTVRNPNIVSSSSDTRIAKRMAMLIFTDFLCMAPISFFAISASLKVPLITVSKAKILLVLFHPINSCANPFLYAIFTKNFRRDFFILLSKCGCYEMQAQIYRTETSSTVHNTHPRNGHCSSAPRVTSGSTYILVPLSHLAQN
Assay: FSH Receptor Radioligand Membrane Binding Standard Pharmacological Test Procedure
Design: expressed in transfected cells
Settings: [125I]FSH binding to membranes of CHO cells stably transfected with the human FSH receptor
pIC50: −log10 of the molar value.

Compound: COCCOc1ccc(C(=O)Nc2ccc(/C=C/c3ccc(NC(=O)c4ccc(OCCOC)c(S(=O)(=O)N5CCOCC5)c4)cc3S(=O)(=O)O)c(S(=O)(=O)O)c2)cc1S(=O)(=O)N1CCOCC1 [Example 30t]
Test system: FSH receptor (Homo sapiens, UniProt P23945)
pIC50: 5.89
//
Compound: COCCSc1ccc(C(=O)Nc2ccc(/C=C/c3ccc(NC(=O)c4ccc(SCCOC)c(S(=O)(=O)N5CCOCC5)c4)cc3S(=O)(=O)O)c(S(=O)(=O)O)c2)cc1S(=O)(=O)N1CCOCC1 [Example 32l]
Test system: FSH receptor (Homo sapiens, UniProt P23945)
pIC50: 5.39
//
Compound: CS(=O)(=O)c1ccc(C(=O)Nc2ccc(/C=C/c3ccc(NC(=O)c4ccc(S(C)(=O)=O)c(N)c4)cc3S(=O)(=O)O)c(S(=O)(=O)O)c2)cc1N
Test system: FSH receptor (Homo sapiens, UniProt P23945)
pIC50: 5.39
//
Compound: CCS(=O)(=O)c1ccc(C(=O)Nc2ccc(/C=C/c3ccc(NC(=O)c4ccc(S(=O)(=O)CC)cc4)cc3S(=O)(=O)O)c(S(=O)(=O)O)c2)cc1 [Example 32f]
Test system: FSH receptor (Homo sapiens, UniProt P23945)
pIC50: 5.54
//
Compound: CSc1ccc(C(=O)Nc2ccc(/C=C/c3ccc(NC(=O)c4ccc(S(C)(=O)=O)c([N+](=O)[O-])c4)cc3S(=O)(=O)O)c(S(=O)(=O)O)c2)cc1S(=O)(=O)N1CCOCC1 [Example 30e]
Test system: FSH receptor (Homo sapiens, UniProt P23945)
pIC50: 5.60
//
Compound: CN(C)c1ccc(C(=O)Nc2ccc(/C=C/c3ccc(NC(=O)c4ccc(N(C)C)c(S(=O)(=O)N5CCOCC5)c4)cc3S(=O)(=O)O)c(S(=O)(=O)O)c2)cc1S(=O)(=O)N1CCOCC1 [Example 32n]
Test system: FSH receptor (Homo sapiens, UniProt P23945)
pIC50: 5.32
